Hello, the source for this data is PubChem BioAssay (NCI), in case you need it.

Measured TGI, listed per entry for reference.
Test system: NCI/ADR-RES ovarian
Assay: NCI tumour cell line growth inhibition, 48 h

Example molecules with recorded TGI:
Molecule	Study Target	Result Value
COc1cc2cc(Oc3ccc(NC(=O)Nc4cccc(C(F)(F)F)c4)cc3)c(C)nc2cc1OC	NCI/ADR-RES ovarian	7.19 µM
O=C1c2ccccc2C(=O)c2c(Nc3ccc4c5c(cccc35)C(=O)c3ccccc3-4)cccc21	NCI/ADR-RES ovarian	> 100 µM
O=C(CC(C(=O)c1cccs1)c1ccsc1)c1cccs1 (stereo not given)	NCI/ADR-RES ovarian	> 100 µM
COc1cc(/C=C2\C[C@H]3[C@@H]4CC=C5C=C(N6CCCC6)CC[C@]5(C)[C@H]4CC[C@]3(C)C2=O)cc(OC)c1OC	NCI/ADR-RES ovarian	> 23.3 µM

Next up:
Input: Query TGI for O=C1c2ccccc2NC(=O)C2C1C(c1ccccc1)CC2(O)c1ccccc1 (stereo not given)
Output: > 100 µM

====

Tested on: SNB-75 CNS
Assay: NCI tumour cell line growth inhibition, 48 h
Measured GI50, listed per entry for reference.

Molecule	GI50
O=C1NC(O)C(c2c[nH]c3ccccc23)=C1c1c[nH]c2ccccc12 (stereo not drawn)	> 25 µM
O=c1ccc2nc(-c3ccccc3)nn(-c3ccccn3)c-2c1	13.2 µM
COc1cc(C)c(Cl)cc1C1=NN(c2ccc(S(N)(=O)=O)cc2)C(/C=C/c2ccccc2)C1 (stereo not drawn)	3 µM
CCC(CO)Nc1nc(NCc2ccccc2O)c2ncn(C(C)C)c2n1 (stereo not drawn)	1.96 µM
O=C(CNc1ccc2c(c1)C(=O)c1ccccc1C2=O)Nc1ccc2c(c1)C(=O)c1ccccc1C2=O	1.79 µM
N[C@@H]1CCCC[C@H]1N.O=C([O-])C(=O)[O-].[Pt+4]	18.5 µM
CC1(C)N=C(N)N=C(N)N1c1ccc(OCCCCOc2ccc(S(=O)(=O)F)cc2)c(Cl)c1	0.737 µM

Next up:
Input: Query GI50 for CC(=O)[CH-]C(=O)c1ccccc1.CC(=O)[CH-]C(=O)c1ccccc1.[Eu+3].[OH-].[OH3+]
Output: 96.1 µM

====

System: MALME-3M melanoma
Test: NCI tumour cell line growth inhibition, 48 h
Measurement Type: TGI

Input: Query TGI for C=C(CN1C(=O)[C@H]2CCCN2C(=O)c2ccccc21)c1ccc(C(=O)O)cc1
Output: > 100 µM

Input: Query TGI for Oc1cc(-c2ccccc2)cn2c1nc1ccccc12
Output: > 100 µM

Input: Query TGI for N/C(=C\c1ccc(OCc2ccccc2)c(OCc2ccccc2)c1[N+](=O)[O-])C(=O)O
Output: > 100 µM

Input: Query TGI for O=C(NC(CS)C(=O)O)c1cccc2c(=O)c3ccccc3[nH]c12 (stereo unspecified)
Output: > 100 µM

Input: Query TGI for O/C(=C\c1nc2ccccc2nc1/C=C(\O)c1ccc(Cl)cc1)c1ccccc1
Output: > 100 µM

Input: Query TGI for Clc1cc(Cc2cc(Cl)c(Cl)c3c2OCOC3)c2c(c1Cl)COCO2
Output: > 100 µM

Input: Query TGI for O=c1c2ccccc2n(C[C@H]2CO2)c2ccccc12
Output: 3.19 µM

Input: Query TGI for C=CC(c1ccccc1)[C@@]1(OC(C)=O)C(=O)C(=O)OC1C1COC(C)(C)O1 (stereo partly specified)
Output: 34.3 µM

Input: Query TGI for O=C(CCc1ccccc1)ON1C(=S)NC(c2ccccc2)(c2ccccc2)C1=S
Output: 71.5 µM

Input: Query TGI for COc1cccc(NC(=O)/C(CC(=O)CC(c2ccccc2)c2c(O)c3ccccc3oc2=O)=N\NC(C)(C)C)c1OC (stereo unspecified)
Output: > 100 µM

Input: Query TGI for NNC(=O)c1ccccc1NC(=O)/C(=C/c1ccccc1O)NC(=O)c1ccccc1
Output: > 100 µM
